Data provenance: patent US10940139B2

Tested on: MAPK phosphorylation in PANC-1 pancreatic cancer cell line
Assay: MAPK cell-based phosphorylation assay (cell-direct ELISA, EGF stimulation)
Settings: Homo sapiens, at 30 μM
Please respond with reported inhibition at 30 µM for every item in the list.

inhibition at 30 µM on MAPK phosphorylation in PANC-1 pancreatic cancer cell line for Oc1ccc(C2(c3cccc(Cl)c3)CCCC2)cc1 [drawing 1047] is 76 to 100%

The molecule O=C(NCCc1ccc(O)nc1)c1csc2nc(-c3ccccn3)nc(N3CCOCC3)c12 [drawing 1168] on MAPK phosphorylation in PANC-1 pancreatic cancer cell line: inhibition at 30 µM was 1 to 25%

The observed inhibition at 30 µM for N#Cc1cccc(N2CCN(C(=O)c3csc4c(O)nc(-c5ccccn5)nc34)CC2)c1 [drawing 1139] when tested with MAPK phosphorylation in PANC-1 pancreatic cancer cell line stands at 1 to 25%

Per the reported MAPK phosphorylation in PANC-1 pancreatic cancer cell line data, OC1CCCN(c2nc(-c3ccccn3)nc3scc(-c4ccccc4)c23)C1 (stereo not drawn) [drawing 1102] has inhibition at 30 µM of 51 to 75%

# value of inhibition at 30 µM, MAPK phosphorylation in PANC-1 pancreatic cancer cell line, item O=C(Nc1nnc(-c2ccccn2)[nH]1)c1ccc2ccccc2n1 [drawing 1002] = 1 to 25%

# COc1ccc(CN2CCN(C(=O)c3csc4c(O)nc(-c5ccccn5)nc34)CC2)cc1 [drawing 1124] with MAPK phosphorylation in PANC-1 pancreatic cancer cell line: inhibition at 30 µM is 1 to 25%

The molecule O=C(Nc1nnc(-c2ccccn2)[nH]1)c1ccn(-c2cccc(Cl)c2)n1 [drawing 1028] , when measured on MAPK phosphorylation in PANC-1 pancreatic cancer cell line, yielded inhibition at 30 µM of 25 to 50%

The value of inhibition at 30 µM recorded for O=C(C1CCN(c2nc(-c3ccccn3)nc3scc(-c4ccccc4)c23)CC1)N1CCCCC1 [drawing 1105] when tested on MAPK phosphorylation in PANC-1 pancreatic cancer cell line reads 1 to 25%

// molecule O=C(Nc1nnc(-c2ccccn2)[nH]1)c1ccn(-c2cccc(F)c2)n1 [drawing 999] , assay MAPK phosphorylation in PANC-1 pancreatic cancer cell line, inhibition at 30 µM value: 1 to 25%

# value of inhibition at 30 µM, MAPK phosphorylation in PANC-1 pancreatic cancer cell line, item Cc1cnc(-c2ccccn2)nc1NC(=O)COCc1ccc(C#N)cc1 [drawing 1174] = 1 to 25%

Item Oc1nc(-c2ccccn2)nc2[nH]cnc12 [drawing 1076] ; assay system MAPK phosphorylation in PANC-1 pancreatic cancer cell line; inhibition at 30 µM reported as 1 to 25%

Simply: COCCN(CCOC)c1nc(-c2ccccn2)nc2scc(C(=O)NCCc3cnc(O)nc3)c12 [drawing 1171] , MAPK phosphorylation in PANC-1 pancreatic cancer cell line, inhibition at 30 µM = 25 to 50%

The reported inhibition at 30 µM value, MAPK phosphorylation in PANC-1 pancreatic cancer cell line, for CC(C)(C(=O)Nc1nc(-c2ccccn2)nc2sccc12)c1ccc(C#N)cc1 [drawing 1136] reads 1 to 25%

Query Nc1nc(O)c2nc[nH]c2n1 [drawing 1112] on MAPK phosphorylation in PANC-1 pancreatic cancer cell line; inhibition at 30 µM returned: 1 to 25%

The value of inhibition at 30 µM recorded for Cc1ccccc1N1CCN(C(=O)c2csc3c(O)nc(-c4ccccn4)nc23)CC1 [drawing 1123] when tested on MAPK phosphorylation in PANC-1 pancreatic cancer cell line reads 25 to 50%

Measured inhibition at 30 µM (MAPK phosphorylation in PANC-1 pancreatic cancer cell line), entry O=C(CC(c1ccccc1)c1ccccc1)N1CCCc2c(O)nc(-c3ccccn3)nc21 [drawing 1061] : 1 to 25%

The recorded inhibition at 30 µM with MAPK phosphorylation in PANC-1 pancreatic cancer cell line for O=C(Nc1nnc(-c2ccccn2)[nH]1)C1CCCN(c2ncccn2)C1 (stereo not drawn) [drawing 1015] was 1 to 25%

# value of inhibition at 30 µM, MAPK phosphorylation in PANC-1 pancreatic cancer cell line, item Nc1nc(O)c2scc(-c3ccccc3Cl)c2n1 [drawing 1073] = 1 to 25%

CC(C)C1=C(O)C2(CC2c2ccc(-c3ccccc3)cc2)C(C)CC1 (stereo not drawn) [drawing 1056] on MAPK phosphorylation in PANC-1 pancreatic cancer cell line gives inhibition at 30 µM = 1 to 25%

Lab note: molecule COc1ccc2c(ccn2CC(=O)Nc2nnc(-c3ccccn3)[nH]2)c1 [drawing 1000] tested on MAPK phosphorylation in PANC-1 pancreatic cancer cell line; recorded inhibition at 30 µM was 1 to 25%

MAPK phosphorylation in PANC-1 pancreatic cancer cell line assay, molecule O=C(CCc1c[nH]c2ccccc12)Nc1nnc(-c2ccccn2)[nH]1 [drawing 1001] , recorded inhibition at 30 µM = 25 to 50%

Observed inhibition at 30 µM on MAPK phosphorylation in PANC-1 pancreatic cancer cell line, entry Cc1nc2nc(C(F)(F)F)nn2c(C)c1CC(=O)Nc1nnc(-c2ccccn2)[nH]1 [drawing 1020] , equals 1 to 25%

Record O=C(c1csc2c(O)nc(-c3ccccn3)nc12)N1CCN(c2ccc(F)cc2F)CC1 [drawing 1142] / MAPK phosphorylation in PANC-1 pancreatic cancer cell line, inhibition at 30 µM recorded as 1 to 25%

# value of inhibition at 30 µM, MAPK phosphorylation in PANC-1 pancreatic cancer cell line, item O=C(Nc1nnc(-c2ccccn2)[nH]1)c1cccc(N2CCCS2(=O)=O)c1 [drawing 1021] = 1 to 25%

Fill in: MAPK phosphorylation in PANC-1 pancreatic cancer cell line inhibition at 30 µM for O=C(Cc1ccc2c(c1)OCCO2)Nc1nnc(-c2ccccn2)[nH]1 [drawing 1026] = 1 to 25%

inhibition at 30 µM for MAPK phosphorylation in PANC-1 pancreatic cancer cell line with input COc1ccc(COCC(=O)N2CCCc3c(O)nc(-c4ccccn4)nc32)cc1 [drawing 1057] equals 1 to 25%

# inhibition at 30 µM measured on MAPK phosphorylation in PANC-1 pancreatic cancer cell line for item Cc1cccc(CN(Cc2ccccn2)Cc2nccn2C)c1 [drawing 1045] = 25 to 50%

Item: COCC(C)Nc1nc(-c2ccccn2)nc2sc(C)c(-c3ccccc3)c12 (stereo not drawn) [drawing 1040] | System: MAPK phosphorylation in PANC-1 pancreatic cancer cell line | inhibition at 30 µM: 76 to 100%

Entry O=C(Cc1cccc(F)c1)Nc1nc(-c2ccccn2)cs1 [drawing 1033] ; assay system MAPK phosphorylation in PANC-1 pancreatic cancer cell line; inhibition at 30 µM recorded at 1 to 25%

Reading of inhibition at 30 µM for O=C(c1csc2c(O)nc(-c3ccccn3)nc12)N1CCNC(c2cccc(F)c2)C1 (stereo not drawn) [drawing 1130] with MAPK phosphorylation in PANC-1 pancreatic cancer cell line: 1 to 25%

Case O=c1nc(-c2ccccn2)[nH]c2sc(-c3ccccc3)cc12 [drawing 1037] , MAPK phosphorylation in PANC-1 pancreatic cancer cell line, inhibition at 30 µM recorded as 25 to 50%

So the reported inhibition at 30 µM for O=C(Cc1c[nH]c2ccccc12)Nc1nnc(-c2ccccn2)[nH]1 [drawing 996] , on MAPK phosphorylation in PANC-1 pancreatic cancer cell line, turned out to be 51 to 75%

Response field inhibition at 30 µM (MAPK phosphorylation in PANC-1 pancreatic cancer cell line) for item O=C(Nc1nnc(-c2ccccn2)[nH]1)C1CC(=O)N(Cc2cccc(C(F)(F)F)c2)C1 (stereo not drawn) [drawing 1024] : 25 to 50%

The reported MAPK phosphorylation in PANC-1 pancreatic cancer cell line inhibition at 30 µM of COC(=O)c1cc(NCC2NC(CC(C)C)=NO2)ccc1Cl (stereo not drawn) is 1 to 25%

Record O=C(c1csc2c(O)nc(-c3ccccn3)nc12)N1CCC(N2CCOCC2)CC1 [drawing 1067] / MAPK phosphorylation in PANC-1 pancreatic cancer cell line, inhibition at 30 µM recorded as 1 to 25%

Bench note, MAPK phosphorylation in PANC-1 pancreatic cancer cell line: entry `O=[N+]([O-])c1cc(C(F)(F)F)ccc1Sc1nc2c(c(C(F)(F)F)n1)CCCC2` , its inhibition at 30 µM = 1 to 25%
